molecular target: CDK9/cyclin T1 (Homo sapiens, UniProt P50750); test: CDK9/cyclin T1 kinase inhibition, LANCE assay; format: biochemical; details: reaction time 60 minutes, 10 μM ATP, 10-dose IC50, compounds 35-126 (127-208 listed, method not stated), read-out: CDK9/cyclin T1 Potency Grade
Sequence (P50750 whole entry): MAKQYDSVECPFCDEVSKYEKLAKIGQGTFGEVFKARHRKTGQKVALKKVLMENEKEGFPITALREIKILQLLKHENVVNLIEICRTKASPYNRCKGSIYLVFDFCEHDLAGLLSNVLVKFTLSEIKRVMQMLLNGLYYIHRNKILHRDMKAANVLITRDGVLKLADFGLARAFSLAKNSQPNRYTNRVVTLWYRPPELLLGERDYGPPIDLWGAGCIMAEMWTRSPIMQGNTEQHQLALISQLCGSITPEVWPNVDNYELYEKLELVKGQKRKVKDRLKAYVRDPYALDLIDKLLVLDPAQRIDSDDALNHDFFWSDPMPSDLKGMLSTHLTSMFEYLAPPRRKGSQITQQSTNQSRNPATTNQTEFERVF
Sequence (O60563 whole entry partner): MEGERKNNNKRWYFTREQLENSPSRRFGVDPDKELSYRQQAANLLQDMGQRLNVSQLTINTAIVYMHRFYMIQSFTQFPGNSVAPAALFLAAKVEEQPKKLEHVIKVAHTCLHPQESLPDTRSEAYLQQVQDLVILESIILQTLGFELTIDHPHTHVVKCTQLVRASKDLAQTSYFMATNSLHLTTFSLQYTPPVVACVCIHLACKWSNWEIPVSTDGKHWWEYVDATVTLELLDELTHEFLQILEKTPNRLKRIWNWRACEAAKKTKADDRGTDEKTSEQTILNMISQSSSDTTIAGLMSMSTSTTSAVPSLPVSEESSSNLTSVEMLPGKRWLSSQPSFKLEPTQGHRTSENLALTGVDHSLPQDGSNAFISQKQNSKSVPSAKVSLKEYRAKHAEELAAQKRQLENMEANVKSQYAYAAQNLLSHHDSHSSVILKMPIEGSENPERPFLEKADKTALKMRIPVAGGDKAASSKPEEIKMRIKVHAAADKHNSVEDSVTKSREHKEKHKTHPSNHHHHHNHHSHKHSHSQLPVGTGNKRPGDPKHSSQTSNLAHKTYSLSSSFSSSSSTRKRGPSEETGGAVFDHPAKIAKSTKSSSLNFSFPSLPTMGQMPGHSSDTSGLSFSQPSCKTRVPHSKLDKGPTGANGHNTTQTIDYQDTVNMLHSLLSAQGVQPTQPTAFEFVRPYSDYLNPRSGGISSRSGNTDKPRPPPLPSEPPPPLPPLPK
pIC50: −log10 of the molar value.
reported.endpoint: pIC50

Working through the 7 compounds below one at a time, give pIC50 for each.
1. N[C@H]1CC[C@H](Nc2cc(C3=CCOCC3)nc3ccnn23)C1 [Compound 110]
2. Cc1cc(C)cc(-c2cc(N[C@H]3CC[C@H](N)C3)n3nccc3n2)c1 [Compound 105]
3. N[C@H]1CC[C@H](Nc2cc(-c3cccc4ccccc34)nc3ccnn23)C1 [Compound 172]
4. CCc1cc(N[C@H]2CC[C@H](N)C2)n2nccc2n1 [Compound 47]
5. CC(=O)Nc1cc(N[C@@H]2CC[C@@H](N)C2)n2nccc2n1 [Compound 128]
6. CC(C)c1cc(N[C@@H]2CC[C@@H](NC=O)C2)n2nccc2n1 [Compound 137]
7. CC(C)c1cc(N[C@@H]2CCN(C)C2)n2nccc2n1 [Compound 135]

["6.00 to 6.30", "6.30 to 9.00", "6.30 to 9.00", "6.30 to 9.00", "< 6.00", "6.30 to 9.00", "< 6.00"]

* * *

Provide the recorded IC50 for the entries that follow.
biological target: CDK9/cyclin T1 (Homo sapiens); test: CDK9/cyclin T1 kinase inhibition, LANCE assay; format: biochemical; conditions: reaction time 60 minutes, 10 μM ATP, 10-dose IC50, compounds 35-126 (127-208 listed, method not stated), read-out: CDK9/cyclin T1 Potency Grade

In the examples that follow, each entry is paired with its recorded IC50.
CC(C)c1ccc(-c2cc(N[C@H]3CC[C@H](N)C3)n3nccc3n2)cc1 [Compound 199]; 1 to 500 nM
Cc1ncc(-c2cc(N[C@H]3CC[C@H](N)C3)n3nccc3n2)cn1; 501 to 1000 nM
CCC(C)c1cc(N[C@@H]2CC[C@@H](NC=O)C2)n2nccc2n1 (some centres unmarked) [Compound 143]; 1 to 500 nM
CC(C)c1cc(N[C@@H]2CC[C@@H](N(O)C(N)=O)C2)n2nccc2n1 [Compound 151]; 1 to 500 nM
CC(C)c1cc(N[C@@H]2CC[C@@H](NC(=N)N)C2)n2nccc2n1; 1 to 500 nM
N[C@@H]1CC[C@@H](Nc2cc(C3CC3)nc3ccnn23)C1 [Compound 43]; 1 to 500 nM
CC(C)OC(=O)N[C@@H]1CC[C@@H](Nc2cc(C(C)C)nc3c(Cl)cnn23)C1 [Compound 159]; 501 to 1000 nM
N[C@H]1CC[C@H](Nc2cc(-c3ccc4c(c3)OCO4)nc3c(Cl)cnn23)C1 [Compound 104]; 1 to 500 nM
COCCN[C@@H]1CC[C@@H](Nc2cc(C(C)C)nc3ccnn23)C1 [Compound 59]; 1 to 500 nM
CC(C)c1cc(N[C@H]2CC[C@H](N)C2)n2ncc(C#N)c2n1 [Compound 64]; 1 to 500 nM

Working through the 6 molecules below one at a time, give IC50 for each.
1. N[C@H]1CC[C@H](Nc2cc(C3=CCOC3)nc3ccnn23)C1
2. CCC(CC)c1cc(N[C@H]2CC[C@H](NC(=O)c3cnc(C)cn3)C2)n2nccc2n1 [Compound 148]
3. N[C@H]1CC[C@H](Nc2cc(-c3cccc(Cl)c3)nc3ccnn23)C1 [Compound 166]
4. CN1CCN(c2cc(N[C@H]3CC[C@H](N)C3)n3nccc3n2)CC1
5. CC1CCC(c2cc(N[C@H]3CC[C@H](N)C3)n3nccc3n2)CC1 (some centres unmarked)
6. CC(C)c1cc(N[C@@H]2CC[C@@H](NC(=O)OCc3ccccc3)C2)n2nccc2n1 [Compound 141]

1: 501 to 1000 nM; 2: 1 to 500 nM; 3: 1 to 500 nM; 4: > 1000 nM; 5: 1 to 500 nM; 6: 1 to 500 nM

Working through the 4 molecules below one at a time, give IC50 for each.
1. Cc1cnn2c(N[C@@H]3CC[C@@H](NC(=O)OCc4ccccc4)C3)cc(C(C)C)nc12 [Compound 87]
2. O=CN[C@@H]1CC[C@@H](Nc2cc(C3CC3)nc3ccnn23)C1 [Compound 142]
3. N[C@H]1CC[C@H](Nc2cc(C3=CCCCC3)nc3ccnn23)C1 [Compound 200]
4. COc1cc(C)cc(-c2cc(N[C@H]3CC[C@H](N)C3)n3nccc3n2)c1 [Compound 161]

1: 1 to 500 nM; 2: 1 to 500 nM; 3: 1 to 500 nM; 4: 1 to 500 nM

* * *

Provide the recorded pIC50 for the entries that follow.
target: CDK9/cyclin T1 (Homo sapiens); assay: CDK9/cyclin T1 inhibition, radiometric assay; type: biochemical; settings: read-out: CDK9/cyclin T1 Potency Grade
pIC50: −log10 of the molar value.

In the examples that follow, each entry is paired with its recorded pIC50.
CC(=O)Nc1cc(N[C@@H]2CC[C@@H](N)C2)n2ncc(Cl)c2n1 [Compound 33, 2,2,2-trifluoroacetate]; 6.30 to 9.00
N[C@H]1CC[C@H](Nc2cc(C3CCCC3)nc3ccnn23)C1 [Compound 9]; 6.30 to 9.00
N[C@H]1C[C@H](Nc2cc(C3CCCC3)nc3ccnn23)C1 [Compound 20]; 6.30 to 9.00
c1cc2nc(C3CCCC3)cc(NC3CCCC3)n2n1 [Compound 5]; 6.30 to 9.00
CCC(C)c1cc(N[C@H]2C[C@H](N)C2)n2nccc2n1 (stereo partly drawn) [Compound 19]; 6.30 to 9.00

Working through the 2 molecules below one at a time, give pIC50 for each.
1. Cc1cc(NC2CCCC2)n2nccc2n1 [Compound 1]
2. N[C@H]1CC[C@H](Nc2cc(C3CCCC3)nc3ccnn23)CC1 [Compound 8]

1: < 6.00; 2: 6.30 to 9.00

Working through the 2 molecules below one at a time, give pIC50 for each.
1. CCc1cc(N[C@H]2CC[C@H](N)C2)n2nccc2n1 [Compound 28]
2. Cc1cc(N[C@@H]2CC[C@H](N)C2)n2nccc2n1 [Compound 10]

1: 6.30 to 9.00; 2: < 6.00

* * *

Provide the recorded IC50 for the entries that follow.
Biological target: CDK9/cyclin T1 (Homo sapiens, UniProt P50750)
Experiment: CDK9/cyclin T1 inhibition, radiometric assay
Format: biochemical
Settings: read-out: CDK9/cyclin T1 Potency Grade
Method: Exemplary compounds of the invention (1-34) were tested for inhibition of CDK9/cyclin T1. […] Reactions were carried out at 10 μM ATP. Data was normalized to positive and negative controls and curve fits were executed with GraphPad software and were performed where the enzyme activities at the highest concentration of compounds were less than 65%.

In the examples that follow, each entry is paired with its recorded IC50.
N[C@H]1CC[C@@H](Nc2cc(C3CCCC3)nc3ccnn23)C1; 1 to 500 nM
CCC(C)c1cc(NC2CCCC2)n2nccc2n1 (stereo not shown); 1 to 500 nM
CC(C)c1cc(NC2CCCCC2)n2nccc2n1; 1 to 500 nM
CCC(C)c1cc(N[C@H]2CC[C@H](N)CC2)n2nccc2n1 (stereo partly shown); 1 to 500 nM
CC(C)c1cc(NC2CCCC2)n2nccc2n1; 1 to 500 nM
N[C@@H]1CC[C@H](Nc2cc(C3CCCC3)nc3ccnn23)C1; 1 to 500 nM

Working through the 3 molecules below one at a time, give IC50 for each.
1. CC(C)c1cc(N[C@@H]2CCOC2)n2nccc2n1
2. Cc1cc(N[C@H]2CC[C@@H](N)C2)n2nccc2n1
3. Cc1cc(N[C@H]2C[C@H](N)C2)n2nccc2n1

1. > 1000 nM
2. 501 to 1000 nM
3. 501 to 1000 nM

* * *

molecular target: CDK9/cyclin T1 (Homo sapiens); experiment: CDK9/cyclin T1 kinase inhibition, LANCE assay; assay type: biochemical; details: reaction time 60 minutes, 10 μM ATP, 10-dose IC50, compounds 35-126 (127-208 listed, method not stated), read-out: CDK9/cyclin T1 Potency Grade
reported.endpoint: IC50

COC(=O)N[C@H]1CC[C@H](Nc2cc(C3CC3)nc3ccnn23)C1 [Compound 89]; > 1000 nM

Working through the 2 molecules below one at a time, give IC50 for each.
1. CC(C)OC(=O)N[C@@H]1CC[C@@H](Nc2cc(C(C)C)nc3ccnn23)C1
2. CC(C)Cc1cc(N[C@H]2CC[C@H](N)C2)n2ncc(Cl)c2n1

["1 to 500 nM", "1 to 500 nM"]

* * *

Target: CDK9/cyclin T1 (Homo sapiens, UniProt P50750)
Assay: CDK9/cyclin T1 kinase inhibition, LANCE assay
Type: biochemical
Details: reaction time 60 minutes, 10 μM ATP, 10-dose IC50, compounds 35-126 (127-208 listed, method not stated), read-out: CDK9/cyclin T1 Potency Grade
Description: Exemplary compounds of the invention (35-126) were tested for inhibition of CDK9/cyclin T1 kinase. Using a LANCE assay (reaction time 60 minutes), the compounds were tested in 10-dose IC50 duplicate mode with a 3-fold serial dilution starting at 4.3 μM. […] Reactions were carried out at 10 μM ATP. Data was normalized to positive and negative controls and curve fits were analyzed with XLFIT5 as % inhibition vs. log [compound concentration] using a 4-parameter logistic model205. […]
pIC50: −log10 of the molar value.
reported.endpoint: pIC50

In the examples that follow, each entry is paired with its recorded pIC50.
CCNc1cc(N[C@H]2CC[C@H](N)C2)n2nccc2n1 [Compound 189]; 6.30 to 9.00
N[C@H]1CC[C@H](Nc2cc(Nc3cccc4ccccc34)nc3ccnn23)C1 [Compound 171]; 6.30 to 9.00
CN(CCO)c1cc(N[C@H]2CC[C@H](N)C2)n2nccc2n1 [Compound 90]; 6.30 to 9.00

Working through the 4 compounds below one at a time, give pIC50 for each.
1. CCN(CC)c1cc(N[C@H]2CC[C@H](N)C2)n2nccc2n1 [Compound 79]
2. COCCNc1cc(N[C@H]2CC[C@H](N)C2)n2nccc2n1 [Compound 88]
3. CCC(CC)c1cc(N[C@H]2CC[C@H](N(C)CCOC)C2)n2nccc2n1 [Compound 62]
4. CCNc1cc(N[C@H]2CC[C@H](N)C2)n2nccc2n1 [Compound 98]

1: 6.30 to 9.00; 2: 6.00 to 6.30; 3: 6.30 to 9.00; 4: 6.30 to 9.00
